Value source: PubChem BioAssay (NCI)

Test system: MCF7 breast
Test: NCI tumour cell line growth inhibition, 48 h
Property: TGI

Recorded result, `Cc1cc(C)nc(NS(=O)(=O)c2ccc(NC(=O)c3cccc4c(NNc5ccc(S(=O)(=O)N=C(N)N)cc5)c5ccccc5nc34)cc2)n1` , TGI: > 50 µM

CON(C)C(=O)C1CCCO1 (stereo unspecified) yielded TGI of > 100 µM

Notebook: `CCOC(=O)c1ccc(Nc2nc3ccc(C(F)(F)F)cc3nc2C(=O)OCC)cc1` , TGI read as > 100 µM

Item: CSc1nc2c(ncn2C2OC(CO)C(O)C(O)C2O)c(=O)[nH]1 (stereo unspecified) | TGI: > 100 µM

// TGI lookup, compound = `O=C(/C=C/c1ccc2c(c1)OCO2)Cc1nc2ccccc2[nH]c1=O` , result: > 100 µM

TGI recorded for this compound, `COc1ccc(-c2cnoc2-c2cc(OC)c3c(c2)OCCO3)cc1` , is > 100 µM
